B1: Formin-binding protein 4, residues 200 to 261; numbered along this chain, Q8N3X1 (parent)
chain: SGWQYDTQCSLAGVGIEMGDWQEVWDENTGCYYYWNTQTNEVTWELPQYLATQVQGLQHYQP

Variants of: B1
ASSAY_METHOD_TEXT: abundance fitness (aPCA) (normalised: wild type 0, dead -1); higher = more abundant; growth selection in yeast, the domain comes from the species named
MEASUREMENT_CONTEXT: Homo sapiens
PARAMETER_MEASURED: abundance fitness

Solved cases (10 shown):
For `A12L` the variant record lists abundance fitness as -0.272

Kindly note the recorded abundance fitness for `T52L` , which is -0.064

Summary for this variant, `Y60N` : abundance fitness is 0.01

get_value(item= `V14W` , readout=abundance fitness) returns 0.055

Please fill in: abundance fitness reported for `T43Q` = -0.018

In plain terms, `A12H` has a documented abundance fitness of -0.217

Measured abundance fitness, `E27F` : -0.319

Looking up `Q38Y` , I see its abundance fitness listed as 0.128

Field abundance fitness (entry `G2D` ) reads 0.196

Notebook: `S10R` , abundance fitness read as -0.328

Each variant below has a recorded value; state its abundance fitness.
1. S1M
2. Q8E

Result ::
1: 0.503; 2: 0.123

I would be grateful if you could provide abundance fitness for each of the following entries.
1. M18N
2. Q22W

Result ::
1. -0.869
2. -0.61

Consider the following items and state reported abundance fitness for each.
1. L11P
2. V14D
3. I16N
4. N40T
5. H59P
6. N36L
7. T7Q

Result ::
1: -0.636; 2: -0.273; 3: -0.676; 4: -0.096; 5: -0.115; 6: -0.861; 7: -0.012

// for each variant in input: emit abundance fitness
1. V24L
2. Y5Q
3. Q4S
4. E23T
5. E17C

Result ::
-0.074
-0.357
-0.023
-0.582
-0.338
